readout-type: melting point (°C)
Numbers only here, please. The scale is °C.

compound	melting point / °C
CCOC(=O)/C(C(N)=S)=C1/NN=C(c2ccc(Cl)cc2)O1	176
CCCCCCCCCCS(=O)(=O)Cl [1-decanesulfonyl chloride]	32
CC1(C)CCCCC1	-33
CCOC(=O)c1csnn1 [ethyl 1,2,3-thiadiazole-4-carboxylate]	84
Nc1ccccc1[N+](=O)[O-]	72

Field melting point (entry CCc1c(C)[nH]c2ccc(N(C)C)cc12 ) reads 100

Field melting point (entry CCCCCCCCCCCCCCCCCCCCCCCCCCCCCCCCCCCCCCCCCCCC ) reads 88

Field melting point (entry COC(C)(C)C [tert-butyl methyl ether] ) reads -109

Field melting point (entry NC(CCC(=O)O)C(=O)O (stereo in doubt) ) reads 201

Field melting point (entry N#Cc1c(F)ccc([N+](=O)[O-])c1F ) reads 53
